Molecular target: Tumor Necrosis Factor-alpha (TNF-α)
Sequence (P01375 77-233): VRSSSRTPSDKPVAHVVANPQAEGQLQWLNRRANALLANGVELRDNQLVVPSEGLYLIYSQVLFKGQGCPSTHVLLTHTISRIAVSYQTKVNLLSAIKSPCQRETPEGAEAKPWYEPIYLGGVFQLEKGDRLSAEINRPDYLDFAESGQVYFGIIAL
Test: SPR equilibrium, Biacore A100, TNF-α captured on chip
Cut-off 20 µM on Kd: below means Fulfilled, at or above means Not fulfilled.

// query Is it true that Kd reported for FERSYLKMPWKFLQSRQGSC (modifications not checked) [TNF1-opt (D4S+P5Y+M7K+S11K quadruple mutant of TNF1)] is less than 20 µM?
// result Fulfilled

// query Is it true that Kd reported for FERSYLMMPWKFLQSRQGSC (modifications not checked) [TNF1 D4S+P5Y+S11K triple mutant] is less than 20 µM?
// result Fulfilled

// query Is it true that Kd reported for FERYPLMMPWSFLQSRQGSC (modifications not checked) [TNF1 D4Y point-mutant] is less than 20 µM?
// result Not fulfilled

// query Is it true that Kd reported for FERYPLMMPWKFLQSRQGSC (modifications not checked) [TNF1 D4Y+S11K double mutant] is less than 20 µM?
// result Fulfilled

// query Is it true that Kd reported for FERDYLKMPWSFLQSRQGSC (modifications not checked) [TNF1 P5Y+M7K double mutant] is less than 20 µM?
// result Not fulfilled

// query Is it true that Kd reported for FERDYLMMPWSFLQSRQGSC (modifications not checked) [TNF1 P5Y point-mutant] is less than 20 µM?
// result Not fulfilled

// query Is it true that Kd reported for FERDPLMMPWKFLQSRQGSC (modifications not checked) [TNF1 S11K point-mutant] is less than 20 µM?
// result Not fulfilled

// query Is it true that Kd reported for FERDPLKMPWSFLQSRQGSC (modifications not checked) [TNF1 M7K point-mutant] is less than 20 µM?
// result Not fulfilled

// query Is it true that Kd reported for FERDYLMMPWKFLQSRQGSC (modifications not checked) [TNF1 P5Y+S11K double mutant] is less than 20 µM?
// result Not fulfilled

// query Is it true that Kd reported for FERSYLKMPWSFLQSRQGSC (modifications not checked) [TNF1 D4S+P5Y+M7K triple mutant] is less than 20 µM?
// result Fulfilled

// query Is it true that Kd reported for FERYPLKMPWSFLQSRQGSC (modifications not checked) [TNF1 D4Y+M7K double mutant] is less than 20 µM?
// result Fulfilled
